Test system: HeLa
method_description: Cell viability by MTT assay, HeLa
Type: cell-based
condition_set: Homo sapiens, growth inhibition, 72 h, mean ± SEM
pIC50: −log10 of the molar value.

- compound_string: "Sc1nn2c(-c3c[nH]c4ccccc34)nnc2s1"
  pIC50: 4.74
- compound_string: "COc1cc(OC)cc(-c2nn3c(-c4c[nH]c5ccccc45)nnc3s2)c1"
  pIC50: 5.85
- compound_string: "COc1ccc(-c2nn3c(-c4c[nH]c5ccccc45)nnc3s2)c(OC)c1"
  pIC50: 6.24
- compound_string: "Brc1ccc(-c2nn3c(-c4c[nH]c5ccccc45)nnc3s2)cc1"
  pIC50: 5.01
- compound_string: "Clc1cccc(-c2nn3c(-c4c[nH]c5ccccc45)nnc3s2)c1"
  pIC50: 5.44
- compound_string: "Fc1cccc(-c2nn3c(-c4c[nH]c5ccccc45)nnc3s2)c1"
  pIC50: 5.70
- compound_string: "Cc1ccc(-c2nn3c(-c4c[nH]c5ccccc45)nnc3s2)cc1"
  pIC50: 4.90
- compound_string: "Brc1cccc(-c2nn3c(-c4c[nH]c5ccccc45)nnc3s2)c1"
  pIC50: 5.19
- compound_string: "O=[N+]([O-])c1cccc(-c2nn3c(-c4c[nH]c5ccccc45)nnc3s2)c1"
  pIC50: 5.66
